System: microorganisms (e.g., bacteria, yeasts, fungi)
test-details: Targeting peptide binding to target microorganisms (Table 3)
condition: microorganism(s) the targeting peptide binds; binding in aqueous buffers depending on peptide solubility, preferably 1x PBS
quantity-kind: Target(s)

Check out these entries, answers already filled in.
Query: Consider the substance PF-276: peptide having multiple activities (LDLALSTNSLNLEGFSF; Peptide with targeting and/or antimicrobial activity) and give its measured Target(s).
Result: S. epidermidis

Query: Data request, read-out Target(s), for PF-311 (IDAVTKKKTTCMIRAPTKIPIAHTDN; Peptide with targeting and/or antimicrobial activity)
Result: C. difficile

Query: Requested field: Target(s). Item: PF-256 (EYFKQVYVKNEKIYSFWICKDLSPKEAAKRAEDILVKLK; Peptide with targeting and/or antimicrobial activity)
Result: S. epidermidis

Query: What value of measured Target(s) is listed for PF-142 (GIDRGCQAAR; Peptide with targeting and/or antimicrobial activity) ?
Result: S. mutans

Query: Would you kindly share the measured Target(s) for PF-295 (NIQVYESECGNYIFKKSDESFLIDIFDKNGTH; Peptide with targeting and/or antimicrobial activity) ?
Result: C. difficile

---
Query: Sample PF-266 (DQEKKNKTEESTEQ; Peptide with targeting and/or antimicrobial activity) — what was its Target(s)?
Result: S. mutans

Query: Requested read-out: Target(s). Entry: HIKETR (Peptide with targeting and/or antimicrobial activity) [PF-222]
Result: S. epidermidis

Query: Sample PF-301: peptide having multiple activities (GIVLIGLKLIPLLANVLN; Peptide with targeting and/or antimicrobial activity) — what was its Target(s)?
Result: C. difficile

Query: Return reported Target(s); argument: PF-230 (EDKPTNTIQEIKPVKWQ; Peptide with targeting and/or antimicrobial activity)
Result: S. mutans

Query: Record request: Target(s) value, item PF-225 (MNCASPEFKKLMELYK; Peptide with targeting and/or antimicrobial activity)
Result: S. epidermidis
